# system under test: Isocitrate lyase (Candida albicans, UniProt Q9P8Q7)
# Sequence (Q9P8Q7 whole entry): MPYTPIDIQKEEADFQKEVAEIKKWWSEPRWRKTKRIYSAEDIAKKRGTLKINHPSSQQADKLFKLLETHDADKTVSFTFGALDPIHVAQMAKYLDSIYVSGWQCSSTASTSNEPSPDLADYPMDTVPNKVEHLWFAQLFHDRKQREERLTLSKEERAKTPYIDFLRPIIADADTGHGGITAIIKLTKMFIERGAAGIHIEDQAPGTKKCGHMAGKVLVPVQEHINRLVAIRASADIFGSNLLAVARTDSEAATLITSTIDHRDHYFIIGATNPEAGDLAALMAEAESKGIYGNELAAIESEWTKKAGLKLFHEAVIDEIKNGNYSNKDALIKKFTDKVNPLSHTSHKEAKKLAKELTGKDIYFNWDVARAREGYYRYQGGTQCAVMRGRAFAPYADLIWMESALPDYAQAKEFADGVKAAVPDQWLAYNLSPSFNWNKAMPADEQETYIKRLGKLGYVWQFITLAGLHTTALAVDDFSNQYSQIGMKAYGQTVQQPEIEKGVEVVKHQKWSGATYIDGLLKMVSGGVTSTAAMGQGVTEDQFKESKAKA
pIC50: −log10 of the molar value.
quantity kind: pIC50

* CC(C)=C/C(C=O)=C(/C)CCC/C(C)=C/CC[C@]1(C)CCc2cc(O)cc(C)c2O1 [SARGACHROMANOL M] | 3.76

Query: Look up pIC50 with Isocitrate lyase (Candida albicans, UniProt Q9P8Q7) for this compound: C/C(=C\CC[C@]1(C)CCc2cc(O)cc(C)c2O1)C/C=C\C(C)C(=O)[C@H](O)CC(C)C (some centres undefined) [SARGACHROMANOL H]
Response: < 3.33

Query: Any idea what pIC50 came out for CC(C)=CC[C@@H](O)/C(C)=C/CC/C(C)=C/CC[C@]1(C)CCc2cc(O)cc(C)c2O1 [SARGACHROMANOL C] on Isocitrate lyase (Candida albicans, UniProt Q9P8Q7)?
Response: < 3.31

Query: Which measured pIC50 belongs to CC(C)=C[C@@H](O)C(=O)C(C)CCC/C(C)=C/CC[C@]1(C)CCc2cc(O)cc(C)c2O1 (some centres undefined) [SARGACHROMANOL I] , tested on Isocitrate lyase (Candida albicans, UniProt Q9P8Q7)?
Response: < 3.33
